- System: LOC_OS01G51400-cb002
- measurementDescription: thermal shift delta Tm vs DMSO control; higher = stronger stabilization (binding);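 also: purified Escherichia coli-expressed rice kinase domain construct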
- appliedConditions: 12.5 µM; protein concentration 2 µM
Counter-ions that a name gives are not always drawn.
Each entry gets Not met if its thermal shift delta Tm stays under 0.2 °C, and Met if its thermal shift delta Tm is 0.2 °C or above.

Look over these answered cases.
| compound | testedSystem | group |
| --- | --- | --- |
| CCNC(=O)Nc1ccc(-c2nc3c(c(N4CCOC[C@@H]4C)n2)CCN(C2COC2)C3)cc1 | LOC_OS01G51400-cb002 | Not met |
| O=C1CCc2c(Oc3ccc4c(c3)[C@@H]3[C@H](O4)[C@H]3c3nc4cc(C(F)(F)F)ccc4[nH]3)ccnc2N1 [Lifirafenib (BGB-283)] | LOC_OS01G51400-cb002 | Met |
| C[C@@H](N)[C@H]1CC[C@H](C(=O)Nc2ccncc2)CC1 | LOC_OS01G51400-cb002 | Met |
| NC1(Cc2ccc(Cl)cc2)CCN(c2ncnc3[nH]ccc23)CC1 | LOC_OS01G51400-cb002 | Met |
| N#Cc1c(NC(=O)c2cccc3ccccc23)sc2c1CCCC2 [JNK Inhibitor IX] | LOC_OS01G51400-cb002 | Not met |

Has `Cc1cc(Nc2cc(N)ncn2)c(=O)n2c1C(=O)NC21CCCCC1` a recorded thermal shift delta Tm greater than or equal to 0.2 °C?
Met

Has `CCN1CCN(Cc2ccc(Nc3ncc(F)c(-c4cc(F)c5nc(C)n(C(C)C)c5c4)n3)nc2)CC1` a recorded thermal shift delta Tm greater than or equal to 0.2 °C?
Not met

Has Cc1cc(Nc2ncnc3ccc(-c4ccc(CNCCS(C)(=O)=O)o4)cc23)ccc1Oc1ccn2ncnc2c1 [HER2-Inhibitor-1] a recorded thermal shift delta Tm greater than or equal to 0.2 °C?
Not met

Has `CCN1CCN(Cc2ccc(C(=O)Nc3ccc(C)c(Oc4ccc5c(c4)CC(=O)N5)c3)cc2C(F)(F)F)CC1` a recorded thermal shift delta Tm greater than or equal to 0.2 °C?
Met

Has `CC(C)(CO)n1cc(C(=O)c2cncc(NC(=O)Cc3ccc(Cl)cn3)c2)c2cnc(N)nc21` a recorded thermal shift delta Tm greater than or equal to 0.2 °C?
Not met

Has `Cc1ccc(CNc2ncnc3ccc(-c4ccc(CO)o4)cc23)o1` a recorded thermal shift delta Tm greater than or equal to 0.2 °C?
Met

Has COc1cc2/c(=N/c3ccc(Br)cc3F)nc[nH]c2cc1OCC1CCN(C)CC1 [Vandetanib (ZD6474)] a recorded thermal shift delta Tm greater than or equal to 0.2 °C?
Not met

Has `O=C(Nc1cc(C(F)(F)F)cc(C(F)(F)F)c1)c1cc(Cl)ccc1O` a recorded thermal shift delta Tm greater than or equal to 0.2 °C?
Met

Has N=C(N)NC(=N)NCCc1ccccc1 [Phenformin HCl] a recorded thermal shift delta Tm greater than or equal to 0.2 °C?
Met

----------
- Tested on: LOC_OS02G54510-cb004
- measurementDescription: thermal shift delta Tm vs DMSO control; higher = stronger stabilization (binding)
- appliedConditions: 12.5 µM; protein concentration 2 µM
Each entry gets No if its thermal shift delta Tm stays under 0.3 °C, and Yes if its thermal shift delta Tm is 0.3 °C or above.

Look over these answered cases.
| molecule | group |
| --- | --- |
| COc1nccc(-c2c(-c3ccc(F)cc3)ncn2C2CCC(O)CC2)n1 (configuration not stated) | No |
| O=C(Nc1ccccc1C(=O)NC1CCCCNC1=O)c1cc2ccccc2s1 (configuration not stated) | No |
| C=C(C)[C@@H]1CC[C@]2(C)CC[C@]3(C)[C@H](CC[C@@H]4[C@@]5(C)CC[C@H](O)C(C)(C)[C@@H]5CC[C@]43C)[C@@H]12 [Lupeol] | Yes |
| COc1ccccc1-c1cc(Nc2cccc(CS(N)(=O)=O)c2)ncn1 | Yes |
| Cc1ccc(NC(=O)c2ccc(CN3CCN(C)CC3)cc2)cc1Nc1nccc(-c2cccnc2)n1 [Imatinib (STI571)] | No |

Has OC1CCC(Nc2ncc3nc(Nc4c(F)cc(F)cc4F)n([C@H]4CCOC4)c3n2)CC1 (some centres not stated) [Tanzisertib(CC-930)] a recorded thermal shift delta Tm greater than or equal to 0.3 °C?
No

----------
- Test system: LOC_OS02G14120-cb001
- measurementDescription: thermal shift delta Tm vs DMSO control; higher = stronger stabilization (binding)
- appliedConditions: 12.5 µM; protein concentration 2 µM
observationType: thermal shift delta Tm (°C)
The answer is to be given in °C; state only the numeric part.

| compound | testedSystem | observationType | recordedMeasurement |
| --- | --- | --- | --- |
| Cc1cnc(Nc2ccc(N3CCN(C)CC3)cc2)nc1Nc1cccc(S(=O)(=O)NC(C)(C)C)c1 | LOC_OS02G14120-cb001 | thermal shift delta Tm | 8.37 |
| COc1ccc(S(=O)(=O)N(C(C)=O)c2ccccc2/C=C/c2cc[n+]([O-])cc2)cc1 | LOC_OS02G14120-cb001 | thermal shift delta Tm | 2.16 |
| O=C(NOC[C@H](O)CO)c1ccc(F)c(F)c1Nc1ccc(I)cc1F | LOC_OS02G14120-cb001 | thermal shift delta Tm | 1.04 |
| O=C(Nc1cccnc1)c1cc(-c2ccnc(F)c2)ccc1OCc1ccccc1 | LOC_OS02G14120-cb001 | thermal shift delta Tm | 0.34 |
| C=CC(=O)Nc1cccc(Nc2nc(Nc3ccc(N4CCN(C(C)=O)CC4)cc3OC)ncc2C(F)(F)F)c1 [Rociletinib (CO-1686, AVL-301)] | LOC_OS02G14120-cb001 | thermal shift delta Tm | 1.71 |

thermal shift delta Tm for Cc1cc(O)c2c(c1)C(=O)c1cccc(O)c1C2=O [Chrysophanic Acid] ?
-2.71

thermal shift delta Tm for C[C@H]1[C@H](C)CC[C@]2(C(=O)O)CC[C@]3(C)C(=CC[C@@H]4[C@@]5(C)C[C@@H](O)[C@H](O)[C@@](C)(CO)[C@@H]5CC[C@]43C)[C@H]12 [Asiatic Acid] ?
0.58

thermal shift delta Tm for `COc1cc(OC)c(/C=C/S(=O)(=O)Cc2ccc(OC)c(NCC(=O)O)c2)c(OC)c1` ?
0.49

thermal shift delta Tm for `CCN1CCN(Cc2ccc(Nc3ncc(F)c(-c4cc(F)c5nc(C)n(C(C)C)c5c4)n3)nc2)CC1` ?
5.93

----------
- Tested on: LOC_OS01G57100-cb003
- measurementDescription: thermal shift delta Tm vs DMSO control; higher = stronger stabilization (binding)
- appliedConditions: 12.5 µM; protein concentration 2 µM
Where a name gives a salt, the structure may show the parent alone.
Each entry gets false if its thermal shift delta Tm stays under 1 °C, and true if its thermal shift delta Tm is 1 °C or above.

Look over these answered cases.
| compound | group |
| --- | --- |
| COc1cc(F)c(F)c(Nc2ccc(I)cc2F)c1NS(=O)(=O)C1(C[C@H](O)CO)CC1 [Refametinib (RDEA119, Bay 86-9766)] | false |
| O=C(O)c1ccc(-c2c[nH]c3ncc(-c4ccccc4)cc23)cc1C1CCCC1 | true |
| CNCc1ccc(-c2cc(-c3nc(-c4ccc(S(=O)(=O)C(C)C)cc4)cnc3N)on2)cc1 | true |
| N#C/C(=C(/N)Sc1ccc(N)cc1)c1ccccc1C(F)(F)F | false |
| C[C@@H](NC(=O)c1ncnc(N)c1Cl)c1ncc(C(=O)Nc2cc(C(F)(F)F)c(Cl)cn2)s1 | false |
| CCCCCCCCc1ccc(CCC(N)(CO)CO)cc1 [Fingolimod (FTY720) HCl] | false |
| Cc1cc(CN2CCN(c3c(Br)cnc4nc(-c5ccc(N6CCN(C)CC6)cc5)[nH]c34)CC2)no1 | false |
| COc1cc(Nc2ncc(F)c(Nc3ccc4c(n3)N(COP(=O)(O)O)C(=O)C(C)(C)O4)n2)cc(OC)c1OC [Fostamatinib (R788)] | true |

Has `CC[C@@H]1C(=O)N(C)c2cnc(Nc3ccc(C(=O)N[C@H]4CC[C@H](N5CCN(CC6CC6)CC5)CC4)cc3OC)nc2N1C(C)C` a recorded thermal shift delta Tm greater than or equal to 1 °C?
true

Has `CNc1nc(Nc2cnn([C@H]3CCN(C4COC4)C[C@@H]3F)c2Cl)ncc1C(F)(F)F` a recorded thermal shift delta Tm greater than or equal to 1 °C?
false

Has CC[C@H](CO)Nc1nc(NCc2ccccc2)c2ncn(C(C)C)c2n1 [Roscovitine (Seliciclib,CYC202)] a recorded thermal shift delta Tm greater than or equal to 1 °C?
false

Has `CCNc1nc(Nc2cc(F)c(C(=O)N3CCOCC3)cc2OC)ncc1C(F)(F)F` a recorded thermal shift delta Tm greater than or equal to 1 °C?
false

Has `CN1CCN(S(=O)(=O)c2ccc(-c3cnc(N)c(C(=O)Nc4cccnc4)n3)cc2)CC1` a recorded thermal shift delta Tm greater than or equal to 1 °C?
true

Has CCC[C@H](NC(=O)/C(C#N)=C/c1cccc(Br)n1)c1ccccc1 [Degrasyn (WP1130)] a recorded thermal shift delta Tm greater than or equal to 1 °C?
true

Has `COc1cc(Nc2ncc3c(n2)-c2ccc(Cl)cc2C(c2c(F)cccc2OC)=NC3)ccc1C(=O)O` a recorded thermal shift delta Tm greater than or equal to 1 °C?
false

Has `N#CC[C@H](C1CCCC1)n1cc(-c2ncnc3[nH]ccc23)cn1` a recorded thermal shift delta Tm greater than or equal to 1 °C?
false

Has `O=C(O)c1ccc2c3c1cccc3c(=O)n1c3ccccc3nc21` a recorded thermal shift delta Tm greater than or equal to 1 °C?
true
